system-name: T1, human MSLN-R3 protein (Met487-Ser606 of NCBI AAH09272.1) expressed on HEK293T-hMSLN-R3 cells (human, UniProt Q13421 487-606)
T1 construct: also called Region3
T1 sequence (Q13421 495-614): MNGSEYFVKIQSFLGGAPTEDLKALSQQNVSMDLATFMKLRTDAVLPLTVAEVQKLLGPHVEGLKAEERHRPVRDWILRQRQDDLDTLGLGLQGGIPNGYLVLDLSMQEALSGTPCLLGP
protocol-description: FACS on HEK293T-hMSLN-R3 cells
reported-metric: EC50 (nM)
Numeric answer only, unit nM assumed.

Below, 3 binders whose answers are already recorded.
[
  {
    "binder": "S009-F1.62.9 (antibody, human IgG1, kappa, V domains shown, human-murine chimeric antibody, human IgG1/kappa constant regions) VH: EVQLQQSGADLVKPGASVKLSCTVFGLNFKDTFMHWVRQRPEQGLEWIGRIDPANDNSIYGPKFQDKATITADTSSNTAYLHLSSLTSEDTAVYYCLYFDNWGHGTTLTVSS VL: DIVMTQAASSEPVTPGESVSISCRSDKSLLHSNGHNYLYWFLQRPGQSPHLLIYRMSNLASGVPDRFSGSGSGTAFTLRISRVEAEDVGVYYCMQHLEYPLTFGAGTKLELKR",
    "EC50 / nM": 0.95
  },
  {
    "binder": "S009-F1.57.1 (antibody, human IgG1, kappa, V domains shown, human-murine chimeric antibody, human IgG1/kappa constant regions) VH: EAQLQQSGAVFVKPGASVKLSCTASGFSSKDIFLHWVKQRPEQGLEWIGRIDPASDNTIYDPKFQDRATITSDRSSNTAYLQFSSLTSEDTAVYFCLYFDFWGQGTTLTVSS VL: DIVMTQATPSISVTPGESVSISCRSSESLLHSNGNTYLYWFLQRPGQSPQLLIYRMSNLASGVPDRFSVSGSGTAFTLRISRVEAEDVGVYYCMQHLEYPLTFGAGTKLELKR",
    "EC50 / nM": 3.9
  },
  {
    "binder": "S009-F1.59.1 (antibody, human IgG1, kappa, V domains shown, human-murine chimeric antibody, human IgG1/kappa constant regions) VH: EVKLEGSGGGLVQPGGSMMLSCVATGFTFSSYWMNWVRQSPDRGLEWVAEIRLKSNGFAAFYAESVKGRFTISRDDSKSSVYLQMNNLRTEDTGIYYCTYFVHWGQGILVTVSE VL: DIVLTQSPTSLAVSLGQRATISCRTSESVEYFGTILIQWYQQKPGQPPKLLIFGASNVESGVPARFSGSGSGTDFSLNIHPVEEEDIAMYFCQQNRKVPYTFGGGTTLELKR",
    "EC50 / nM": 0.31
  }
]

Now for another entry.
Supply reported EC50 belonging to this binder: S009-F1.25.10 (antibody, human IgG1, kappa, V domains shown, human-murine chimeric antibody, human IgG1/kappa constant regions) VH: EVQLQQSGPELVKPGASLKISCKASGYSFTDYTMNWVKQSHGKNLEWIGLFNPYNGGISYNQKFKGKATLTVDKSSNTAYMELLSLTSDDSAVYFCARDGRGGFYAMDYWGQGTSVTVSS VL: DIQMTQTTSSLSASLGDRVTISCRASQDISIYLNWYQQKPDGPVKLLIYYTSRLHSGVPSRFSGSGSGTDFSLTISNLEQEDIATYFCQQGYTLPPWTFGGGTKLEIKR 1.44

FYI, the data here is from patent US20250250357A1.
